src = the Biogen ADME set (Fang et al. 2023)

Listed here are compounds together with their documented intrinsic clearance, human liver microsomes.
observable: intrinsic clearance, human liver microsomes

compound=O=C(Cn1ccnc1)NCc1ccccc1F measured_value="≤ 4.74 mL/min/kg"
compound=Cc1cc(-c2nccs2)nc(CC2CCNCC2)n1 measured_value="≤ 4.74 mL/min/kg"
compound="O=C(NC12CCCC1NCC2)c1ccc(-c2cn[nH]c2)cc1 (stereo not drawn)" measured_value="≤ 4.74 mL/min/kg"

====

Listed here are compounds together with their documented intrinsic clearance, human liver microsomes.
observable: intrinsic clearance, human liver microsomes

compound=c1ccc2c(c1)CCN(Cc1nnc3n1CCC3)C2 measured_value="≤ 0.284 L/h/kg"
compound=CCNC(=O)c1ccc(CS(C)(=O)=O)cc1 measured_value="≤ 0.284 L/h/kg"
compound=COc1cccc(C(=O)C[n+]2cc(-c3ccc(F)cc3)n(C)c2N)c1 measured_value="≤ 0.284 L/h/kg"
compound=Brc1cnc(N2CCCN(c3ccccc3)CC2)nc1 measured_value="7.24 L/h/kg"
compound="O=C1C(N2CCC(n3c(=O)[nH]c4ccccc43)CC2)CCN1c1ccccc1 (centres undefined)" measured_value="0.292 L/h/kg"
compound=CC(C)n1c(=O)cc(N[C@@H](C)c2ccccc2)[nH]c1=O measured_value="≤ 0.284 L/h/kg"
compound=COc1cc2cc(N)c(C3CCNCC3)nc2cc1OC measured_value="≤ 0.284 L/h/kg"
compound=CCC1(O)CN(c2ncnc3c2c(Br)nn3C)C1 measured_value="≤ 0.284 L/h/kg"
compound=Cc1ccc(=O)n(CC2(O)CCN(Cc3ccc4ccccc4n3)CC2)n1 measured_value="≤ 0.284 L/h/kg"

====

Parameter threshold = 100 mL/min/kg. Response is Condition met when intrinsic clearance, rat liver microsomes meets or exceeds it, else Condition not met.

mol=O=C1CCCN1c1ccc(NCc2ccccn2)nc1 assigned_class="Condition not met"
mol=Cc1cc(N(C)C)nc(-n2ccnc2)n1 assigned_class="Condition not met"
mol=O=c1cc(CN2CCCCc3ccccc32)[nH]c2ccnn12 assigned_class="Condition met"
mol=N#Cc1ccc(-c2cccc(CN)c2)s1 assigned_class="Condition met"
mol=C#C[C@@](C)(CC)NC(=O)c1cc(F)cnc1NC1CC(F)(F)C1 assigned_class="Condition met"
mol=Cc1cc(C)c(NC(=O)c2ccnc(OC3CCC3)c2)c(C)n1 assigned_class="Condition not met"
mol=Cc1noc(C2CCN(CC(N)=O)CC2)n1 assigned_class="Condition not met"
mol=Cc1nn(Cc2csc(-c3cccs3)n2)c(N)c1C#N assigned_class="Condition met"
mol=NC(=O)CN1CCC(Oc2cccc(F)c2)CC1 assigned_class="Condition not met"
mol=CN1CCC(NC(=O)COc2ccc(C#N)cc2)CC1 assigned_class="Condition not met"
mol=CCCn1cnnc1CN(C)Cc1cc(C(C)C)on1 assigned_class="Condition met"

====

Listed here are compounds together with their documented intrinsic clearance, rat liver microsomes.
observable: intrinsic clearance, rat liver microsomes

mol=Cc1cnn(Cc2cc(F)ccc2F)c1N measured_value="≤ 10.7 mL/min/kg"
mol=CC(C)Nc1ccc(-c2cc3c(cc2CO)OCCO3)cn1 measured_value="5720 mL/min/kg"
mol=CNC(=O)c1ccc(N2CCCC2)nc1 measured_value="58.1 mL/min/kg"
mol=COCC1(C(=O)N(C)Cc2ccc3ccccc3n2)CCC1 measured_value="4180 mL/min/kg"
mol=Cc1nccc(NC(=O)c2ccncc2Cl)c1Cl measured_value="78.1 mL/min/kg"
mol=CC(C)c1nnc(CN(C(C)C)C2CCOCC2)o1 measured_value="220 mL/min/kg"
mol=Cc1nccc(NC(=O)c2ccc(Cl)nc2Cl)n1 measured_value="15.2 mL/min/kg"

====

Listed here are molecules together with their documented intrinsic clearance, human liver microsomes.
observable: intrinsic clearance, human liver microsomes

mol=O=S(=O)(NC[C@H]1CCCN1)c1ccc(OC(F)F)cc1 measured_value="≤ 4.74 mL/min/kg"
mol=CC(=O)N1CCN(Cc2nc(O)cc(C(F)(F)F)n2)C(C)(C)C1 measured_value="≤ 4.74 mL/min/kg"
mol=CC(=O)Nc1cccc(CN2CCCN(C(C)=O)c3ccccc32)c1 measured_value="139 mL/min/kg"
mol=CC(C)c1noc2nc(C3CC3)cc(C(=O)N3CCN(C)C(=O)C3)c12 measured_value="7.73 mL/min/kg"
mol=CC(C)n1cnnc1SCOCc1ccccc1 measured_value="≤ 4.74 mL/min/kg"
mol=CN1CCN(S(=O)(=O)c2ccc(-c3cnc(N)c(C(=O)Nc4cccnc4)n3)cc2)CC1 measured_value="124 mL/min/kg"

====

experimental_context: pH 6.8
Listed here are compounds together with their documented aqueous solubility.
observable: aqueous solubility (µg/mL)

compound=COc1ccncc1NCc1ccc2c(c1)OCCO2 measured_value=31.1
compound=O=C(Nc1ccc2sccc2c1)N1CCCN(C(=O)Oc2ccccc2)CC1 measured_value=37.9
compound=CCOC(=O)Nc1ccc2c(c1)N(C(=O)CN(CC)CC)c1ccccc1CC2 measured_value=86.4
compound=Cc1nc(CC(=O)NCc2ccccc2)cs1 measured_value=26
compound="CC(C(O)c1ccc(O)cc1)N1CCC(Cc2ccccc2)CC1 (centres undefined)" measured_value=51.7
compound=CCc1nc(NC(=O)c2ccccc2F)sc1C measured_value=23
compound=Cc1ccc(CC(=O)NCc2cccc(C(=O)Nc3ccccc3)c2)cc1 measured_value=0.38
compound=Cc1ccc(-c2ccc(=O)n(Cc3ccncc3)n2)cc1 measured_value=42.6
compound=Fc1cccc(CCNCc2cc(-c3ccccc3)cn3nnnc23)c1 measured_value=13.7
compound=CCOc1cc(CNc2ccc(N3CCOCC3)c(C(=O)O)c2)cc(Cl)c1OC measured_value=22.7
compound=C#CCNC(=O)CN1CCCN(C(=O)c2cccc(C)n2)CC1 measured_value=36.5
compound=O=C1Nc2ccccc2O[C@H]2C[C@@H]1N(Cc1cccnc1)C2 measured_value=94.3
compound=N#CCCn1nc(C(F)(F)F)cc1O measured_value=23.1
compound=CCN(Cc1ccccc1)C(=O)c1ccc(O)cc1O measured_value=46.7
compound=O=C1CC2(CCN(C(=O)NCc3ccccc3)CC2)Oc2ccccc21 measured_value=4.13
compound=CCOCC(=O)NCc1cc(C2CC2)n(C2CCCC2)n1 measured_value=37.9
compound=OC1(Cn2nnc(-c3cccnc3)n2)CCCCC1 measured_value=25.1
compound=Cc1ccncc1-c1ccc(-c2ccn[nH]2)cc1 measured_value=20.5
compound="O=C(C1CCCN(c2ccc(Cl)nn2)C1)N1CCc2ccccc2C1 (centres undefined)" measured_value=49.8

====

experimental_context: pH 6.8
Parameter threshold = 40 µg/mL. Response is Yes when aqueous solubility meets or exceeds it, else No.

mol=CN(Cc1ccccc1N1CCCC1)C(=O)c1cccc(Cn2ccnc2)c1 assigned_class=Yes
mol=O=C(CCc1ccc2c(c1)OCO2)Nc1nc2c(s1)CCC2 assigned_class=No
mol=O=C(c1cccc(Cl)c1)N1CCN(C(=O)c2ccc3ccccc3c2O)CC1 assigned_class=No
mol=Cc1cc(C(=O)NC2CCN(C(=O)c3cc(C)sc3C)CC2)no1 assigned_class=Yes
mol=Cc1cc(CN2CCN(c3ncccn3)CC2)on1 assigned_class=No

====

experimental_context: pH 6.8
Listed here are molecules together with their documented aqueous solubility.
observable: aqueous solubility

mol=COc1ncc(-c2cccc(N(C)C)c2)c(OC)n1 measured_value="24.9 µg/mL"
mol=CCOCC(=O)N1CCC2(CCc3ccccc3O2)CC1 measured_value="34.1 µg/mL"
mol=CCOc1ccc(-c2csc(N)n2)cc1 measured_value="6.55 µg/mL"
mol=COc1ccccc1-c1nc(C(=O)O)cs1 measured_value="54.6 µg/mL"
mol=Nc1nccc2ccc(-c3cccc(F)c3)cc12 measured_value="3 µg/mL"
mol=O=C(CCc1nnc(-c2ccsc2)o1)N1CCCc2cc(F)c(F)cc21 measured_value="2.08 µg/mL"
mol=O=C(O)c1ccccc1-n1cnc(CN2CCCC2)c1 measured_value="38.8 µg/mL"
mol=Cc1ccc([C@@H]2N[C@@H](Cc3ccccc3)C(=O)N2C)o1 measured_value="53.3 µg/mL"
mol=NC(=O)c1cnc(NC2CC2)nc1CCNC(=O)C1(c2cccc(F)c2)CCOCC1 measured_value="77.3 µg/mL"
mol=CN(C)c1cccc(C2CCN(c3ncccn3)CC2)n1 measured_value="16.9 µg/mL"
mol=Fc1ccc(NCc2cccc(OCCN3CCOCC3)c2)nc1 measured_value="39.6 µg/mL"
mol=COc1cccc(-c2nnn(Cc3cc(F)cc4cccnc34)n2)c1 measured_value="0.14 µg/mL"
mol=Cc1cc(C)n(-c2cc(Nc3ccccc3C)ncn2)n1 measured_value="1.74 µg/mL"
mol=Cc1nc(-c2cccnc2)sc1C(=O)Nc1ccccc1-c1cn2c(CN3CCOCC3)csc2n1 measured_value="0.65 µg/mL"
mol=Nc1ccc(CC(=O)Nc2ccccc2F)cc1 measured_value="54 µg/mL"
mol=COc1ncnc2c1CN(Cc1c[nH]nc1-c1ccc(F)cc1)CC2 measured_value="28.4 µg/mL"
mol=O=C(CC1CCCC1)NCc1nnc2n1CCC2 measured_value="31.5 µg/mL"
mol=Fc1cccc(CN2CCN(c3ncccn3)CC2)c1 measured_value="38 µg/mL"
mol=COc1ccc(-c2nnc3ccc(C(F)(F)F)cn23)cc1OC(C)C measured_value="22.9 µg/mL"
mol=CN(c1ccccc1)S(=O)(=O)c1csc(C(=O)Nc2ccc(C(=O)O)cc2)c1 measured_value="80.3 µg/mL"
mol=Cc1cc(C)nc(NC(=O)N(C)C2CCC2)c1 measured_value="41.2 µg/mL"
mol=CC1(C)C(=O)N(Cc2ccc(CO)cc2)C(=O)c2ccccc21 measured_value="27.5 µg/mL"
mol=CSc1ccc(-c2ccc3n(c2=O)C[C@@H]2CNC[C@H]3C2)cc1 measured_value="51.2 µg/mL"
mol=Cc1cccc(OCC(=O)Nc2ccn(C)n2)c1 measured_value="43.5 µg/mL"
mol=Cc1nc2ccc(C(=O)NCCCc3ccc(F)cc3)cc2[nH]1 measured_value="47.9 µg/mL"
mol=Cc1cccnc1NC(=O)CCc1ccc(F)cc1 measured_value="38.1 µg/mL"
mol=Cc1nc2ccccc2c(N)c1C(=O)/C=C/c1ccccc1 measured_value="41.4 µg/mL"
mol=O=C(CN1CCSC1=O)N1CCN(Cc2sc3ccccc3c2Cl)CC1 measured_value="54.4 µg/mL"
mol=Cc1cc(C(=O)Nc2ncccc2C)c2ccccc2n1 measured_value="44 µg/mL"
mol=N#Cc1ccc(C(=O)Nn2cnnc2)cc1 measured_value="18 µg/mL"
mol=Cc1cc2cc(C(=O)N(Cc3ccc4c(c3)OCO4)C3CC3)ccc2o1 measured_value="11.7 µg/mL"
mol=OCCN1CCC(c2ccncn2)CC1 measured_value="37.4 µg/mL"
mol=O=S(=O)(Nc1cccc(-c2nc3ccccc3[nH]2)c1)c1ccc(Cl)cc1 measured_value="4.89 µg/mL"
mol=NCCOc1cccc(C(F)(F)F)n1 measured_value="21.8 µg/mL"
mol=CCCn1ncc2[nH]c(-c3cc(Cn4cncn4)c(C)cc3C)nc21 measured_value="33.6 µg/mL"
mol=O=C(COc1ncnc2ccccc12)NC12CC3CC(CC(C3)C1)C2 measured_value="60.3 µg/mL"
mol=CCN(CC)C(=O)N1CCCN(C(=O)N(CC)CC)CC1 measured_value="48.6 µg/mL"
mol=Cc1ccc(C)c2c(O)cc(CN3CC(c4ccccn4)C3)nc12 measured_value="58.3 µg/mL"
mol=CCc1nnc2c3ccccc3nc(Nc3ccc(OC)cc3)n12 measured_value="0.14 µg/mL"
mol=C[C@@H](CO)Nc1nc(C(F)(F)F)nc2[nH]cnc12 measured_value="40 µg/mL"
